test: NCI Yeast Anticancer Drug Screen. Data for the bub3 strain (AID 167); settings: S. cerevisiae bub3 mutant strain, at 50.0 µM (retest, dose inferred, filed as 5.0), hits give high values
This is part of a sample that, as a whole, favours compounds with a hit. Of some 79,000 tested, about 15% had one in any assay.
Known growth inhibition of a selection of molecules
// units = %; emit number, no label

Example entries begin here.
COc1ccc(N2CCN(CC(O)COc3cc4c(c5c3CCCC5)CCCC4)CC2)cc1 (stereo not given)
97
CC(C)c1ccc(O)c(O)c(=O)c1 (tested in a mixture with another compound)
100
c1ccc(N=c2sc3ccccc3sc2=Nc2ccccc2)cc1
76
COc1ccc(/C(=C/CN2CCC3CCC(C3)C2)c2ccccc2)cc1 (stereo not given)
11

Continue with the next molecule.
Report growth inhibition, nothing else, for this molecule: CS(=O)(=O)OCCN(CCOS(C)(=O)=O)c1ccc(N=Nc2ccccc2)cc1
84

###

Test: NCI Yeast Anticancer Drug Screen. Data for the mlh1 rad18 strain (AID 175)
Details: S. cerevisiae mlh1 rad18 strain growth inhibition; at 50.0 µM (retest, dose inferred, filed as 5.0)
Protocol: Growth inhibition of yeast strains with defined genetic alterations is measured as a screen for potential anti-cancer activity. Selected strains with alterations in DNA damage repair or cell cycle control were exposed to compounds and growth inhibition was measured relative to vehicle treated controls. The strain used in this assay is mlh1 rad18
About 79,000 compounds went through this panel and 15% of them were active in at least one assay; those are over-represented in the sample as a whole. Active and inactive are the calls of the source. Cut-off read from the data, not from the text of the source: active = growth inhibition above about 70%; inactive = the rest.
Response enum: active, inactive

Completed entries (count: 5):
CN(C)CCCC1(c2ccccc2)SC(C)(C)c2ccc(Cl)cc21 (configuration not stated)
inactive
CC(=O)N(O)c1ccc2c(c1)Cc1cc(F)ccc1-2
inactive
COc1cc(CNC(=O)CCCCCCCC/C=C/Br)ccc1O
active
CCCCCCCCCCCCCC1=NCC(C)(C)N1
active
Nc1ccc2nc(Nc3ccc(Cl)c(Cl)c3)cnc2c1
active

Called result for CSc1cc(-c2cc3ccccc3o2)oc(=O)c1C#N
inactive

Called result for O=C(O)/C=C/C(=O)c1ccc(O)cc1
active

###

test: NCI Yeast Anticancer Drug Screen. Data for the bub3 strain (AID 167); conditions: S. cerevisiae bub3 mutant strain, at 50.0 µM
The panel holds about 79,000 compounds, 15% with a hit somewhere; the sample as a whole holds those more often. The source made the active and inactive calls. No stated cut-off is given here; in the data, active means growth inhibition above about 70%; inactive means the rest.
Response enum: active, inactive

Completed entries (count: 4):
Cc1cc([N+](=O)[O-])ccc1NC(=O)N(C)CCOC(=O)Nc1ccccc1
active
CCCCN(CCCC)/N=C\C1=C2NC(=O)/C(C)=C\C=C/C(OC)C(OC(N)=O)/C(C)=C/C(C)C(O)C(OC)CC(C)CC(=C(OC)C1=O)C2=O (centres undefined)
inactive
O=C(NN1C(=O)C(Cl)C1c1ccc(O)cc1)c1ccccc1O (centres undefined)
active
Clc1ccccc1NN(Cc1ccccn1)c1ccccc1Cl
active

Called result for O=C1C(Cl)=C(Nc2ccc(S(=O)(=O)O)cc2)C(=O)c2ccccc21
active

Called result for CC(=O)OC(C)C1C2=C(C(=O)CC1(C)O)C(=O)c1c(ccc(-c3ccc4c(c3O)C(=O)C3=C(C4=O)C(C(C)OC(C)=O)C(C)(O)CC3=O)c1O)C2=O (centres undefined)
active

Called result for O=C(O)c1c(Br)c(Br)c(Br)c(Br)c1-c1c2ccc(=O)cc-2oc2cc(O)ccc12
active

Called result for ClCc1ccc2ccc3ccc(CCl)nc3c2n1
inactive

Called result for O=c1[nH]c2cc(Cl)ccc2nc1/C=C(\O)c1ccc(N2CCN(c3ccc(/C(O)=C/c4nc5ccc(Cl)cc5[nH]c4=O)cc3)CC2)cc1
active
